- Tested on: Influenza A virus
- procedure text: Antiviral activity against Influenza A virus A/Denmark/524/2009 (H1N1) infected in MDCK cells expressing ST6Gal 1 preincubated with virus and cells for 30 mins followed viral infection measured after 2 to 3 days by naphthalene black dye-based plaque reduction assay
- Assay type: functional, cell-based
pEC50: −log10 of the molar value.
measured attribute: pEC50

compound smiles	numeric value
C[Si](C)(C)c1ccc(CNC23CC4CC(CC(O)(C4)C2)C3)cc1	6.22

* * *

- procedure text: Selectivity index, ratio of CC50 for human A549 cells to EC50 for Influenza A virus A/WSN/33(H1N1)
- Format: toxicity
- cond: read-out: Ratio CC50/EC50
measured attribute: selectivity ratio

compound smiles	numeric value
C[Si](C)(C)c1ccc(CNC23CC4CC(CC(O)(C4)C2)C3)cc1	183

* * *

- procedure text: Antiviral activity against Influenza A virus A/Washington/29/2009(H1N1) infected in MDCK cells expressing ST6Gal 1 preincubated with virus and cells for 30 mins followed viral infection measured after 2 to 3 days by naphthalene black dye-based plaque reduction assay
- Type: functional, cell-based

compound smiles	unit symbol	EC50
C[Si](C)(C)c1ccc(CNC23CC4CC(CC(O)(C4)C2)C3)cc1	nM	1400

* * *

- procedure text: Selectivity index, ratio of CC50 for human A549 cells to EC50 for Influenza A virus A/Denmark/524/2009 (H1N1)
- Type: toxicity
- cond: read-out: Ratio CC50/EC50

compound smiles	selectivity ratio
C[Si](C)(C)c1ccc(CNC23CC4CC(CC(O)(C4)C2)C3)cc1	122

* * *

- procedure text: Selectivity index, ratio of CC50 for human A549 cells to EC50 for Influenza A virus A/Texas/04/2009 (H1N1)
- Assay type: toxicity
- cond: read-out: Ratio CC50/EC50
measured attribute: selectivity ratio

compound smiles	measured attribute	result
C[Si](C)(C)c1ccc(CNC23CC4CC(CC(O)(C4)C2)C3)cc1	selectivity ratio	122

* * *

- System: MDCK
- procedure text: Cytotoxicity against MDCK cells after 48 hrs by neutral red uptake assay
- Type: cell-based, Canis lupus familiaris
- cond: dog

compound smiles	tested on	CC50 (µM)
CC[Si](C)(C)c1ccc(CNC23CC4CC(CC(O)(C4)C2)C3)cc1	MDCK	21.8
CC(C)(C)c1ccc(CNC23CC4CC(CC(C4)C2)C3)cc1	MDCK	12.8
C[Si](C)(C)c1ccc(CNC23CC4CC(CC(C4)C2)C3)cc1	MDCK	8
CC(C)(C)c1ccc(CNC23CC4CC(CC(O)(C4)C2)C3)cc1	MDCK	32
C[Si](C)(c1ccccc1)c1ccc(CNC23CC4CC(CC(O)(C4)C2)C3)cc1	MDCK	13.3
C[Si](C)(C)c1ccc(CNC23CC4CC(CC(C4)C2)C3)nc1	MDCK	10.3
CC(C)[Si](c1ccc(CNC23CC4CC(CC(O)(C4)C2)C3)cc1)(C(C)C)C(C)C	MDCK	11.4
C[Si](C)(C)c1ccc(CNC23CC4CC(CC(O)(C4)C2)C3)cc1	MDCK	40.7

* * *

- procedure text: Selectivity index, ratio of CC50 for human A549 cells to EC50 for Influenza A virus A/Denmark/528/2009 (H1N1)
- Format: toxicity
- cond: read-out: Ratio CC50/EC50

compound smiles	selectivity ratio
C[Si](C)(C)c1ccc(CNC23CC4CC(CC(O)(C4)C2)C3)cc1	24.4

* * *

- procedure text: Selectivity index, ratio of CC50 for human A549 cells to EC50 for Influenza A virus A/Switzerland/9715293/2013 (H3N2)
- Format: toxicity
- cond: read-out: Ratio CC50/EC50
measured attribute: selectivity ratio

compound smiles	measured attribute	result
C[Si](C)(C)c1ccc(CNC23CC4CC(CC(O)(C4)C2)C3)cc1	selectivity ratio	105
